Cited source for all entries: PubChem BioAssay (NCI)

assay: NCI Yeast Anticancer Drug Screen. Data for the mlh1 rad18 strain (AID 175); details: S. cerevisiae mlh1 rad18 strain growth inhibition; at 50.0 µM; hits give high values
The panel holds about 79,000 compounds, 15% with a hit somewhere; the sample as a whole holds those more often.
quantity-name: growth inhibition (%)
Provide the reading as a plain figure in %.

Before answering, review these 6 worked examples.
- molecule: "COc1ccc(C2OC3=C(Nc4ccc(Cl)cc4N3)C2=O)c(OC)c1 (centres undefined)"
  growth inhibition [%]: -28.8
- molecule: "N#CCc1nc2ccccc2[nH]1"
  growth inhibition [%]: 3.3
- molecule: "Brc1cc(Br)c(-c2c(Br)cc(Br)cc2Br)c(Br)c1"
  growth inhibition [%]: -15.7
- molecule: "CCCCSC(N)=O"
  growth inhibition [%]: 11.2
- molecule: "c1cncc(CCc2ccncc2)c1"
  growth inhibition [%]: 18.6
- molecule: "CCOC(=O)c1cc(-c2ccc(OC)c(OC)c2)c[nH]1"
  growth inhibition [%]: 28

Prompt: Query: growth inhibition; subject: S=C1CC(c2ccc(Cl)cc2)Sc2ccccc2N1 (centres undefined)
Response: -31.4

Prompt: Find the recorded growth inhibition belonging to CCN(CC)CCOC(NC(C)=O)(c1ccccc1)c1ccccc1 and report it.
Response: 20

Prompt: Suppose we examine the molecule CCOC(=O)c1sc(SC)nc1NC(=O)c1ccc(Cl)cc1 ; what growth inhibition value has been reported?
Response: -24.7

Prompt: Which growth inhibition is listed for O=C(Nc1ccc(S(=O)(=O)N2CCCCC2)cc1)Oc1ccccc1C(=O)O ?
Response: 4.8

Prompt: Bench note: what growth inhibition did Nc1ccccc1/C=C/c1ccnc2ccccc12 show?
Response: 47.8
